# TESTED SYSTEM: BChE (Homo sapiens)
# Sequence (P06276 29-602): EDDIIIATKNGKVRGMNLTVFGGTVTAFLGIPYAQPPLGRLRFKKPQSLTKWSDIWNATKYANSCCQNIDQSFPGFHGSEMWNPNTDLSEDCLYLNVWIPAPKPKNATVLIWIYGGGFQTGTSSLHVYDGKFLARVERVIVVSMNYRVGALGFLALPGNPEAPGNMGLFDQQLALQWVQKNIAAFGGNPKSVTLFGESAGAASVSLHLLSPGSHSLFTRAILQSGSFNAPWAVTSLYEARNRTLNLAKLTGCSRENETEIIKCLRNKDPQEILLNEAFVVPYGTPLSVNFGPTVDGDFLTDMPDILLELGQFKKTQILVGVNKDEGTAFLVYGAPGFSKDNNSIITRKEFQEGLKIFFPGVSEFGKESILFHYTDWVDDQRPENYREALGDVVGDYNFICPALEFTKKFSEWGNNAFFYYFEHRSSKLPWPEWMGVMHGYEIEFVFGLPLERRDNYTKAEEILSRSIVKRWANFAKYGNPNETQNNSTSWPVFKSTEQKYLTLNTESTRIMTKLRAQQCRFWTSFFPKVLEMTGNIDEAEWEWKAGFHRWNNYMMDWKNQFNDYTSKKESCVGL
# PROCEDURE TEXT: biochemical
# ASSAY CONTEXT: 10^–3 M
Reported inhibition at 1000 µM values are given for each entry in this list.
RESULT TYPE: inhibition at 1000 µM (%)

1. COc1ccc2c(c1)C/C(=C\c1ccc(NC(=O)CN3CCN(CCN(C)C)CC3)cc1)C2=O 99.5
2. C=CCN1CCN(CC(=O)Nc2ccc(/C=C3\Cc4cc(OC)ccc4C3=O)cc2)CC1 56.8
3. COc1ccc2c(c1)C/C(=C\c1ccc(NC(=O)CN3CCN(CCO)CC3)cc1)C2=O 87.6

---

# TESTED SYSTEM: MAO-A (Homo sapiens, UniProt P21397)
# Sequence (P21397 whole entry): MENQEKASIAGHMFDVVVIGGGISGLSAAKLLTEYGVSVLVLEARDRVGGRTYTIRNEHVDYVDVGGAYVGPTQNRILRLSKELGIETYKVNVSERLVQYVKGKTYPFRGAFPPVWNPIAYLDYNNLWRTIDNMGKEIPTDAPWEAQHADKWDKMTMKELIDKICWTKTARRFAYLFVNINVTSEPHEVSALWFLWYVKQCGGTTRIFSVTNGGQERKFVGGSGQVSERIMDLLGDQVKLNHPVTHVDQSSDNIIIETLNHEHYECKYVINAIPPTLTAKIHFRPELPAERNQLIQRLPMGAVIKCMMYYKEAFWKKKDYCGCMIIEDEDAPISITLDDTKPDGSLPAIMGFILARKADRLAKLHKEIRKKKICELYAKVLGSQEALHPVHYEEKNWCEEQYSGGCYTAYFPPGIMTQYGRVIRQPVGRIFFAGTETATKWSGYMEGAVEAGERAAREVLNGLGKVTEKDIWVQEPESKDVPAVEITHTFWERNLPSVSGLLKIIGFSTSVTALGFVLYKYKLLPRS
# PROCEDURE TEXT: In vitro MAO-A inhibition assay (fluorometric)
# Format: biochemical
# ASSAY CONTEXT: 10^–3 M
RESULT TYPE: inhibition at 1000 µM

COMPOUND	RESULT
COc1ccc2c(c1)C(=O)/C(=C/c1ccc(NC(=O)CN3CCN(CCN(C)C)CC3)cc1)C2	78.2%
COCCN1CCN(CC(=O)Nc2ccc(/C=C3\Cc4ccc(OC)cc4C3=O)cc2)CC1	48.5%
CCN(CC)CCN(CC)CC(=O)Nc1ccc(/C=C2\Cc3cc(OC)c(OC)cc3C2=O)cc1	97.7%
COc1ccc2c(c1)C(=O)/C(=C/c1ccc(NC(=O)CN(C)CCN(C)C)cc1)C2	88.5%
C#CCN(C)CC(=O)Nc1ccc(/C=C2\Cc3cc(OC)ccc3C2=O)cc1	92.7%
COc1ccc2c(c1)C(=O)/C(=C/c1ccc(NC(=O)CN3CCN(C)CC3)cc1)C2 [D2]	46.6%
C=CCN1CCN(CC(=O)Nc2ccc(/C=C3\Cc4cc(OC)c(OC)cc4C3=O)cc2)CC1	32.6%
COc1cc2c(cc1OC)C(=O)/C(=C/c1ccc(NC(=O)CN(C)CCCN(C)C)cc1)C2	89.8%
COc1ccc2c(c1)C/C(=C\c1ccc(NC(=O)CN3CCN(CCN(C)C)CC3)cc1)C2=O	76.9%
CCCN(C)CC(=O)Nc1ccc(/C=C2\Cc3cc(OC)c(OC)cc3C2=O)cc1	74.1%
CCCN(C)CC(=O)Nc1ccc(/C=C2\Cc3ccc(OC)cc3C2=O)cc1	≥ 90%
C=CCN1CCN(CC(=O)Nc2ccc(/C=C3\Cc4ccc(OC)cc4C3=O)cc2)CC1	57.2%
COc1ccc2c(c1)C/C(=C\c1ccc(NC(=O)CN3CCN(CCO)CC3)cc1)C2=O	65.8%
COc1cc2c(cc1OC)C(=O)/C(=C/c1ccc(NC(=O)CN(C)CCN(C)C)cc1)C2	82.4%

---

# TESTED SYSTEM: AChE (Homo sapiens, UniProt P22303)
# Sequence (P22303 32-614): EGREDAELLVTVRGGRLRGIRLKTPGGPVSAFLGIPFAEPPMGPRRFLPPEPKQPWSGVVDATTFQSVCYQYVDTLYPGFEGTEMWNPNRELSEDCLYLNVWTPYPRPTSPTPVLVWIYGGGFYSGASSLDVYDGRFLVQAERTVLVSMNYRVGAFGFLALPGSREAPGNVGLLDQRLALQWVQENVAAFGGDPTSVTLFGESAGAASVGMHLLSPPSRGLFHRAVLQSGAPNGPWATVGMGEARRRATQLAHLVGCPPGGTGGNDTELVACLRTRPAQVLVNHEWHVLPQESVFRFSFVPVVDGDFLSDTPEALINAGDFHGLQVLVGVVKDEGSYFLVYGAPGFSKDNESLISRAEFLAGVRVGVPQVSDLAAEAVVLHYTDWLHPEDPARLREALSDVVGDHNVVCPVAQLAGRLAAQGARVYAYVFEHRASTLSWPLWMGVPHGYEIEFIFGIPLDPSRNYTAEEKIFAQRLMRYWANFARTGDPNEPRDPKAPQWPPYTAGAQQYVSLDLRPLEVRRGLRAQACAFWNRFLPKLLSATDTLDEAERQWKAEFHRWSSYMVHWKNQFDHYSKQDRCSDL
# PROCEDURE TEXT: biochemical
# ASSAY CONTEXT: 10^–5 M
RESULT TYPE: inhibition at 10 µM (%)

1) COc1ccc2c(c1)C(=O)/C(=C/c1ccc(NC(=O)CN3CCN(CCN(C)C)CC3)cc1)C2 82.4
2) CCCN(C)CC(=O)Nc1ccc(/C=C2\Cc3ccc(OC)cc3C2=O)cc1 91.8
3) COc1ccc2c(c1)C(=O)/C(=C/c1ccc(NC(=O)CN3CCN(CCCO)CC3)cc1)C2 86.3
4) COc1ccc2c(c1)C/C(=C\c1ccc(NC(=O)CN(C)CCN(C)C)cc1)C2=O 76
5) COc1ccc2c(c1)C(=O)/C(=C/c1ccc(NC(=O)CN3CCN(CCCN(C)C)CC3)cc1)C2 78.1
6) COc1ccc2c(c1)C/C(=C\c1ccc(NC(=O)CN3CCN(CCCO)CC3)cc1)C2=O 89.2
7) COc1cc2c(cc1OC)C(=O)/C(=C/c1ccc(NC(=O)CN3CCN(CCCN(C)C)CC3)cc1)C2 82.1
8) CCCN(C)CC(=O)Nc1ccc(/C=C2\Cc3cc(OC)c(OC)cc3C2=O)cc1 91.8

---

# TESTED SYSTEM: MAO-B (Homo sapiens, UniProt P27338)
# Sequence (P27338 whole entry): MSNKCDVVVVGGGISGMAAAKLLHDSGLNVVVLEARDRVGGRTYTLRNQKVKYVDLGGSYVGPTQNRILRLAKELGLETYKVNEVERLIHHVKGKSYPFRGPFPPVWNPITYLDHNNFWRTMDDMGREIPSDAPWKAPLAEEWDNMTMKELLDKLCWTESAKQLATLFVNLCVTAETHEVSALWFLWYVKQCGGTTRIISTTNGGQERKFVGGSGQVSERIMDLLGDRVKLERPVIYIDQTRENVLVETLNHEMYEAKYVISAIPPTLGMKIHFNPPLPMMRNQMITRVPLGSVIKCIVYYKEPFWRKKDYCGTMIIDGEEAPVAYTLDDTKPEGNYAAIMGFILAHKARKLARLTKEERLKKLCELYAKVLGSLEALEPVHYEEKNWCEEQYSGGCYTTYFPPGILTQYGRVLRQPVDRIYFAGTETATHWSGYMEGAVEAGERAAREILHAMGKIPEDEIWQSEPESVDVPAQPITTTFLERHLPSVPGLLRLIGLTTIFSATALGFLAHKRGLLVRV
# PROCEDURE TEXT: In vitro MAO-B inhibition assay (fluorometric)
# Assay type: biochemical
# ASSAY CONTEXT: 10^–3 M
Hi, to clarify the labels: rule met covers inhibition at 1000 µM from 80% upward, rule not met covers anything below 80%.

COMPOUND	CAT
C#CCN(C)CC(=O)Nc1ccc(/C=C2\Cc3ccc(OC)cc3C2=O)cc1	rule met
CCN1CCN(CC(=O)Nc2ccc(/C=C3\Cc4ccc(OC)cc4C3=O)cc2)CC1	rule not met
CCN(CC)CCN(CC)CC(=O)Nc1ccc(/C=C2\Cc3ccc(OC)cc3C2=O)cc1	rule met
COCCN1CCN(CC(=O)Nc2ccc(/C=C3\Cc4cc(OC)ccc4C3=O)cc2)CC1	rule met
COc1ccc2c(c1)C(=O)/C(=C/c1ccc(NC(=O)CN3CCN(CCO)CC3)cc1)C2	rule met
COCCN1CCN(CC(=O)Nc2ccc(/C=C3\Cc4ccc(OC)cc4C3=O)cc2)CC1	rule not met
COc1ccc2c(c1)C(=O)/C(=C/c1ccc(NC(=O)CN3CCN(CCCO)CC3)cc1)C2	rule met
COc1ccc2c(c1)C(=O)/C(=C/c1ccc(NC(=O)CN3CCN(CCCN(C)C)CC3)cc1)C2	rule met
C#CCN1CCN(CC(=O)Nc2ccc(/C=C3\Cc4cc(OC)c(OC)cc4C3=O)cc2)CC1	rule met
COc1ccc2c(c1)C(=O)/C(=C/c1ccc(NC(=O)CN3CCN(C)CC3)cc1)C2 [D2]	rule not met
C#CCN(C)CC(=O)Nc1ccc(/C=C2\Cc3cc(OC)ccc3C2=O)cc1	rule met
COc1ccc2c(c1)C/C(=C\c1ccc(NC(=O)CN3CCN(C)CC3)cc1)C2=O [D1]	rule not met
CCN(CC)CCN(CC)CC(=O)Nc1ccc(/C=C2\Cc3cc(OC)c(OC)cc3C2=O)cc1	rule met
COc1cc2c(cc1OC)C(=O)/C(=C/c1ccc(NC(=O)CN3CCN(CCO)CC3)cc1)C2	rule not met
